Target: Replicase polyprotein 1ab (Severe acute respiratory syndrome coronavirus, UniProt P0C6X7)
readout: IC50 (µM)
Answer with a number only, understood to be in µM.

compound	readout-unit	IC50
Cc1cc(C(=O)N[C@H](C(=O)N[C@@H](Cc2ccccc2)C(=O)N[C@@H](Cc2ccccc2)C(=O)Nc2ccc([N+](=O)[O-])cc2Cl)C(C)C)[n-][o+]1	µM	7
O=C(C[C@H](O)C(=O)N[C@@H](Cc1ccccc1)C(=O)Nc1ccc([N+](=O)[O-])cc1Cl)N[C@@H](Cc1ccccc1)C(=O)Nc1ccc([N+](=O)[O-])cc1Cl	µM	4

Consider the record given below.
// query Would you kindly share the measured IC50 for Cc1cc(C(=O)N[C@H](C(=O)N[C@@H](Cc2ccccc2)C(=O)N[C@H](C(=O)N[C@@H](Cc2ccccc2)C(=O)Nc2ccc([N+](=O)[O-])cc2Cl)C(C)O)C(C)C)no1 (stereo not given in full) ?
// result 5

###

Target: Replicase polyprotein 1ab (Severe acute respiratory syndrome coronavirus)
The entries below come with measured pKi values attached.
By convention, pKi is the negative base-10 log of a molar concentration.

Solved entries:
molecule	target-entity	pKi
O=C(C[C@H](O)C(=O)N[C@@H](Cc1ccccc1)C(=O)Nc1ccc([N+](=O)[O-])cc1Cl)N[C@@H](Cc1ccccc1)C(=O)Nc1ccc([N+](=O)[O-])cc1Cl	Replicase polyprotein 1ab (Severe acute respiratory syndrome coronavirus)	5.51
Cc1cc(C(=O)N[C@H](C(=O)N[C@@H](Cc2ccccc2)C(=O)N[C@H](C(=O)N[C@@H](Cc2ccccc2)C(=O)Nc2ccc([N+](=O)[O-])cc2Cl)C(C)O)C(C)C)no1 (stereo partly drawn)	Replicase polyprotein 1ab (Severe acute respiratory syndrome coronavirus)	5.79

Next molecule, please.
// query State its pKi on Replicase polyprotein 1ab (Severe acute respiratory syndrome coronavirus): `Cc1cc(C(=O)N[C@H](C(=O)N[C@@H](Cc2ccccc2)C(=O)N[C@@H](Cc2ccccc2)C(=O)Nc2ccc([N+](=O)[O-])cc2Cl)C(C)C)[n-][o+]1`
// result 5.54
